targetOfAssay: UniProtKB Q16819
Sequence (Q16819 66-593 limits assumed): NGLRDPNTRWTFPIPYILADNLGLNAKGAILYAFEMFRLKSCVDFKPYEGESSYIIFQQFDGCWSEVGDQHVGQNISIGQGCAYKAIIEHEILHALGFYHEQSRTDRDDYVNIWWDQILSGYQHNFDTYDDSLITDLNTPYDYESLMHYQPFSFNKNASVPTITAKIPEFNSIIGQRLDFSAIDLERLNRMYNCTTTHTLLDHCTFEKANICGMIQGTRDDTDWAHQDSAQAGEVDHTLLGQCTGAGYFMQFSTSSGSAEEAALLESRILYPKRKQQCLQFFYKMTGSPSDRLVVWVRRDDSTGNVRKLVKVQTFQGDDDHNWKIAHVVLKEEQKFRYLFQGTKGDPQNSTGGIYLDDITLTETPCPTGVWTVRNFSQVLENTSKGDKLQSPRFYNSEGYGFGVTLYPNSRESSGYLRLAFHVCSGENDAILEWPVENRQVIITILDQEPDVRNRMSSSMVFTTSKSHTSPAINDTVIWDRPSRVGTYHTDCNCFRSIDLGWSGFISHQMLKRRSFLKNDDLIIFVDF
runDescription: Meprin α assay, fluorogenic substrate (Mca)-YVADAPK-(K-ε-Dnp), 384 and 1536 well plate formats
Format: biochemical
conditionDetails: 1536 wpf; enzyme 1.3nM; time 30 min; read-out: Actinonin IC50
measuredParameter: IC50
Note: a bare number is incomplete; add the unit.

Specify measured IC50 for `CCCCC[C@H](CC(=O)NO)C(=O)N[C@H](C(=O)N1CCC[C@H]1CO)C(C)C` .
4.84 nM

----------
targetOfAssay: UniProt:Q16819
runDescription: Meprin α assay, fluorogenic substrate (Mca)-YVADAPK-(K-ε-Dnp), 384 and 1536 well plate formats
Type: biochemical
conditionDetails: 1536 wpf; enzyme 0.65nM; time 90 min; read-out: Actinonin IC50
measuredParameter: pIC50
pIC50 is defined as minus the log10 of a concentration measured in mol/L.

Identify the reported pIC50 for the following entry. CCCCC[C@H](CC(=O)NO)C(=O)N[C@H](C(=O)N1CCC[C@H]1CO)C(C)C [Actinonin, actinonin]
8.28

----------
Here we list compounds with their recorded IC50 when tested on MMP9 (Homo sapiens).
Sequence (P14780 94-707): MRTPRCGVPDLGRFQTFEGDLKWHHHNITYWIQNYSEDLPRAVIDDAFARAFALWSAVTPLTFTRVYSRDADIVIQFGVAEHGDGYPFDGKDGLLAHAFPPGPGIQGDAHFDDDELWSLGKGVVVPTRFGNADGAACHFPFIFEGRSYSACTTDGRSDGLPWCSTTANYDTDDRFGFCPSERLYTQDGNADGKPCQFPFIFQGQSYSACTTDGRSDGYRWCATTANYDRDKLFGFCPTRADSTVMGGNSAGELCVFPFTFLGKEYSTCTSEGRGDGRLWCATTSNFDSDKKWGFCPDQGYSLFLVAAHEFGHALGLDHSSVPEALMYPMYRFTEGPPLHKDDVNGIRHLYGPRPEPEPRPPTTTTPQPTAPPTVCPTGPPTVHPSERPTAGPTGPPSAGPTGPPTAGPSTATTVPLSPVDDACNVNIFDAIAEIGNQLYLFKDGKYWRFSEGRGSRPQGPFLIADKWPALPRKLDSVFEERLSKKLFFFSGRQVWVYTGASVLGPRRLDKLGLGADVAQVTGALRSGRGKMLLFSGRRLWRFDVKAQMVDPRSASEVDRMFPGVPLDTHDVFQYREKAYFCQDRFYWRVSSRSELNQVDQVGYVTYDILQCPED

Tell me IC50 of `COc1cc(OC)cc(C(=O)CNc2nnc(SCC(=O)NO)s2)c1` when tested on MMP9 (Homo sapiens).
> 17 µM

Retrieve IC50 on MMP9 (Homo sapiens); query `O=C(CSc1nnc(NC(=O)COc2ccccc2)s1)NO`
> 17 µM

GET IC50 where system = MMP9 (Homo sapiens) and item = `O=C(CSc1nnc(NC(=O)c2ccccc2)s1)NO`
> 17 µM

Lab note: MMP9 (Homo sapiens) assay, enter IC50 for `O=C(COc1ccc(Cl)cc1Cl)NO` here
> 17 µM

Would you please give the reported IC50 of `O=C(c1ccc(C(=O)O)c([N+](=O)[O-])c1)c1ccc(C(=O)O)c([N+](=O)[O-])c1` with MMP9 (Homo sapiens)?
17 µM

----------
targetOfAssay: meprin β (Homo sapiens, UniProt Q16820)
Sequence (Q16820 62-594 limits assumed): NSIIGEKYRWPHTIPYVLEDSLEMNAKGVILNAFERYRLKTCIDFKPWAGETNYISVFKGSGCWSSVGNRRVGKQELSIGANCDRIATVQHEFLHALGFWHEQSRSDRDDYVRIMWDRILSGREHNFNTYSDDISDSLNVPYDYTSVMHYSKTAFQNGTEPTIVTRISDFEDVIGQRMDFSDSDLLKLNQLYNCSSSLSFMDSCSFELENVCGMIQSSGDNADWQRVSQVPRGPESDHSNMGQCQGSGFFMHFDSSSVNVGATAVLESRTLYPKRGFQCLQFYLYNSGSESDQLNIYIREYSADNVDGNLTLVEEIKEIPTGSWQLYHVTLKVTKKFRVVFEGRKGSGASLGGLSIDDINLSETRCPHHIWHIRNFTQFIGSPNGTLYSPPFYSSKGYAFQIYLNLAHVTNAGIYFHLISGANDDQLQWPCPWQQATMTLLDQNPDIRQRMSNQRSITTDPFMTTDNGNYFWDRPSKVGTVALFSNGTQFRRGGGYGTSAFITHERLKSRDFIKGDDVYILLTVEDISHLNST
runDescription: Meprin β assay, fluorogenic substrate (Mca)-EDEDED-(K-ε-Dnp), 384 and 1536 well plate formats
Format: biochemical
conditionDetails: Meprin β 1536 wpf; read-out: IC50
Method: The meprin α and meprin β assays, which utilize the substrates (Mca)-YVADAPK-(K-ε-Dnp) and (Mca)-EDEDED-(K-ε-Dnp), respectively, have been described previously. […] Both assays followed the same general protocol. […] Reactions were incubated at RT for 1 h, after which the fluorescence was measured using the Synergy H4 multimode microplate reader (Biotek Instruments) (λexcitation = 324 nm, λemission = 390 nm). […]
measuredParameter: IC50

Give a short answer stating reported IC50 for `O=C(Nc1cc(C(=O)Nc2ccc(S(=O)(=O)O)cc2S(=O)(=O)O)cc(C(=O)Nc2ccc(S(=O)(=O)O)cc2S(=O)(=O)O)c1)Nc1cc(C(=O)Nc2ccc(S(=O)(=O)O)cc2S(=O)(=O)O)cc(C(=O)Nc2ccc(S(=O)(=O)O)cc2S(=O)(=O)O)c1` .
0.048 µM

Supply measured IC50 of `CCCCC[C@H](CC(=O)NO)C(=O)N[C@H](C(=O)N1CCC[C@H]1CO)C(C)C` in your reply.
9.75 µM

----------
targetOfAssay: meprin α (Homo sapiens)
runDescription: Meprin α assay, fluorogenic substrate (Mca)-YVADAPK-(K-ε-Dnp), 384 and 1536 well plate formats
Type: biochemical
conditionDetails: 1536 wpf; enzyme 1.3nM; time 60 min; read-out: Actinonin IC50
measuredParameter: pIC50
In simple prose, pIC50 is minus the logarithm base ten of a concentration in moles per litre.

Return value of pIC50 for input `CCCCC[C@H](CC(=O)NO)C(=O)N[C@H](C(=O)N1CCC[C@H]1CO)C(C)C` , no commentary.
8.23

----------
targetOfAssay: meprin α (Homo sapiens)
runDescription: Meprin α assay, fluorogenic substrate (Mca)-YVADAPK-(K-ε-Dnp), 384 and 1536 well plate formats
Type: biochemical
conditionDetails: 1536 wpf; enzyme 0.32nM; time 90 min; read-out: Actinonin IC50
measuredParameter: IC50 (nM)
State the answer as a number, implicitly in nM.

Give IC50 for CCCCC[C@H](CC(=O)NO)C(=O)N[C@H](C(=O)N1CCC[C@H]1CO)C(C)C [Actinonin, actinonin]
5.83

----------
targetOfAssay: UniProt Q16819
runDescription: Meprin α assay, fluorogenic substrate (Mca)-YVADAPK-(K-ε-Dnp), 384 and 1536 well plate formats
Assay type: biochemical
conditionDetails: triplicate, 10-point, 3:1 serial dilution, highest concentration 17.4 µM; read-out: Meprin α IC50
Procedure: The meprin α and meprin β assays, which utilize the substrates (Mca)-YVADAPK-(K-ε-Dnp) and (Mca)-EDEDED-(K-ε-Dnp), respectively, have been described previously. […] Both assays followed the same general protocol. […] Reactions were incubated at RT for 1 h, after which the fluorescence was measured using the Synergy H4 multimode microplate reader (Biotek Instruments) (λexcitation = 324 nm, λemission = 390 nm). […]
Field: pIC50. Provide a value for each of the molecules that follow.
Note on units: pIC50 is unitless, being -log10 of a concentration expressed in mol/L.

Look up and state reported pIC50 for `O=C(CCN(Cc1ccccc1)S(=O)(=O)c1ccc(F)cc1)NO`
6.35

For `O=C(CCN(Cc1cccs1)S(=O)(=O)c1ccc([N+](=O)[O-])cc1)NO` , write its pIC50.
6.25

Give the reported pIC50 for this molecule. `O=C(CSc1nnc(NC(=O)c2ccccc2)s1)NO`
6.05

Give the measured pIC50 for `COc1cc(OC)cc(C(=O)CNc2nnc(SCC(=O)NO)s2)c1`
6.66

----------
targetOfAssay: meprin β (Homo sapiens)
runDescription: Meprin β assay, fluorogenic substrate (Mca)-EDEDED-(K-ε-Dnp), 384 and 1536 well plate formats
Type: biochemical
conditionDetails: triplicate, 10-point, 3:1 serial dilution, highest concentration 17.4 µM; read-out: Meprin β IC50
Kindly state log10 IC50 for each of the entries shown.
All values: log10 IC50 [nM].

Look up and report measured log10 IC50 for this entry: CSc1nnc2c(n1)OC(c1ccc([N+](=O)[O-])o1)Nc1ccccc1-2 (stereo not drawn) [SR412882]
3.54

Specify measured log10 IC50 for O=[N+]([O-])c1ccc(CN2CCC3(CCc4ccccc43)CC2)o1 [SR207820] .
3.18

Tell us which log10 IC50 value is on record for COc1cc(OC)cc(C(=O)CNc2nnc(SCC(=O)NO)s2)c1 [Compound 19849]
2.46

// fetch log10 IC50 given entry O=C(c1ccc(C(=O)O)c([N+](=O)[O-])c1)c1ccc(C(=O)O)c([N+](=O)[O-])c1 [SR355996]
2.99

Using the record for O=C(CSc1nnc(NC(=O)COc2ccccc2)s1)NO [Compound 19848] , state its measured log10 IC50.
2.59

Answer with the recorded log10 IC50 of O=C(CSc1nnc(NC(=O)c2ccccc2)s1)NO [Compound 19847] only.
3.16

----------
Target chain: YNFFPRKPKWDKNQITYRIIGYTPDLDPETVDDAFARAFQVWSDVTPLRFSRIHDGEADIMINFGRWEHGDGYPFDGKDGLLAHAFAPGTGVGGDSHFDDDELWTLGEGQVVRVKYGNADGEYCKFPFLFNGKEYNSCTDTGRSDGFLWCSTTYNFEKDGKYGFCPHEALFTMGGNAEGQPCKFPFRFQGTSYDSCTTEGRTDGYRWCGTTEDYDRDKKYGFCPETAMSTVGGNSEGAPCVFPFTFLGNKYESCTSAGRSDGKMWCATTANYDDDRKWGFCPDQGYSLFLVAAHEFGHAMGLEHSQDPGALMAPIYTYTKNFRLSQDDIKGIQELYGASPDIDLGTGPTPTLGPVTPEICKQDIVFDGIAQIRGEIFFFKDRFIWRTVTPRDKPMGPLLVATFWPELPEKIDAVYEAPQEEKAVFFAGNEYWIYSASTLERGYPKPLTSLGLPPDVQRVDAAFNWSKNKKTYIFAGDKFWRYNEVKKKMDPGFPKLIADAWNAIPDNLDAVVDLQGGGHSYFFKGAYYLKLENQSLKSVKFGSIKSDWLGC
Please provide measured IC50 for the entries that follow.
Express your answer in µM, writing the number without its unit.

Give a short answer stating reported IC50 for O=C(CCN(Cc1ccccc1)S(=O)(=O)c1ccc(F)cc1)NO [Compound 162808] .
17

Please supply the value of reported IC50 for the item O=C(CSc1nnc(NC(=O)c2ccccc2)s1)NO [Compound 19847]
2.87
